assay: pH-dependencies of solubility at 37°C; type: physicochemical; conditions: 20mM sodium acetate buffer, aqueous buffer, thermodynamic from solid; 20mM sodium acetate pH 4.5; 37°C; 1 h
METRIC: solubility at 1 h (µg/mL)
Provide the reading as a plain figure in µg/mL.

Ask: Using the record for N#CC[C@H](C1CCCC1)n1cc(-c2ncnc3[nH]ccc23)cn1 [Ruxolitinib phosphate] , report its solubility at 1 h.
Reply: 6000

* * *

Catalogue of solubility at 0.5 h values
assay: pH-dependencies of solubility at 37°C; type: physicochemical; conditions: 50mM KH2PO4 pH 6.8; 37°C; 0.5 h
Where a name gives a salt, the structure may show the parent alone.
Provide the reading as a plain figure in mg/mL.

>>> print(df.to_string())
                                   compound  measurement
0  N#CC[C@H](C1CCCC1)n1cc(-c2ncnc3[nH]ccc23)cn1 (stereo in doubt) [Ruxolitinib maleate]          2.9

Field: next compound
Ask: Using the record for N#CC[C@H](C1CCCC1)n1cc(-c2ncnc3[nH]ccc23)cn1 [Ruxolitinib oxalate] , report its solubility at 0.5 h.
Reply: 21.5

* * *

experiment: pH-dependencies of solubility at 37°C; assay type: physicochemical; conditions: aqueous buffer, thermodynamic from solid; 50mM KH2PO4 pH 6.8; 37°C; 24 h
Structures can show the parent of a compound that is named as a salt.
Catalogue of solubility at 24 h values
Show the value, then the unit it is measured in.

                                   molecule  measurement
0  N#CC[C@H](C1CCCC1)n1cc(-c2ncnc3[nH]ccc23)cn1 (stereo in doubt) [Ruxolitinib maleate]    2.5 mg/mL

Ask: Using the record for N#CC[C@H](C1CCCC1)n1cc(-c2ncnc3[nH]ccc23)cn1 [Ruxolitinib oxalate] , report its solubility at 24 h.
Reply: 23.9 mg/mL

* * *

assay: pH-dependencies of solubility at 37°C; assay type: physicochemical; details: aqueous buffer, thermodynamic from solid; 20mM sodium acetate pH 4.5; 37°C; 1 h
Where a name gives a salt, the structure may show the parent alone.
Catalogue of solubility at 1 h values
Provide the reading as a plain figure in mg/mL.

In [3]: df
Out[3]:
                                   molecule             metric  measurement
0  N#CC[C@H](C1CCCC1)n1cc(-c2ncnc3[nH]ccc23)cn1 [Ruxolitinib oxalate]  solubility at 1 h         27.7

Field: next molecule
Ask: Using the record for N#CC[C@H](C1CCCC1)n1cc(-c2ncnc3[nH]ccc23)cn1 (stereo in doubt) [Ruxolitinib maleate] , report its solubility at 1 h.
Reply: 3.2
